# assay overview: Safety evaluation (body weight changes) in pancreatic cancer PA1383 model
# Format: in vivo, Balb/nude female mice
# assay conditions: 60 mg/kg i.p. QD×5/week×2 weeks; Day 8
reported endpoint: Body weights (g)
Numbers only, in g.

Problem: Consider the molecule O=P1(NCCCl)OCCCN1CCCl (stereo not shown) [Ifosfamide, reference compound] and give its measured Body weights.
Result: 23

* * *

# assay overview: Safety evaluation (body weight changes) in pancreatic cancer PA1222 model
# Format: in vivo, BALB/c nude mice
# assay conditions: 120 mg/kg i.p. QW×3; Day 10
reported endpoint: Body weights (g)
Give bare numbers, in g.

Problem: Need Body weights, item Nc1ccn([C@@H]2O[C@H](CO)[C@@H](O)C2(F)F)c(=O)n1 [Gemcitabine, reference compound]
Result: 24.3

* * *

# assay overview: Safety evaluation (body weight changes) in lung cancer LU11693 model
# Assay type: in vivo, BALB/c Nude nude mice
# assay conditions: 4 mg/kg tail vein QW×3; Day 11
reported endpoint: Body weights (g)
One number for each entry, in g.

Problem: Item N.N.[Cl][Pt][Cl] [Cisplatin] has what recorded Body weights?
Result: 22.8

* * *

# assay overview: Safety evaluation (body weight changes) in lung cancer LU11693 model
# Assay type: in vivo, BALB/c Nude nude mice
# assay conditions: 4 mg/kg tail vein QW×3; Day 28
reported endpoint: Body weights (g)
Numbers only, in g.

Problem: Reported Body weights, compound N.N.[Cl][Pt][Cl] [Cisplatin] : ____
Result: 23.6

* * *

# assay overview: Safety evaluation (body weight changes) in pancreatic cancer PA1383 model
# Assay type: in vivo, Balb/nude female mice
# assay conditions: 60 mg/kg i.p. QD×5/week×2 weeks; Day 28
reported endpoint: Body weights

Problem: For the molecule O=P1(NCCCl)OCCCN1CCCl (stereo not shown) [Ifosfamide, reference compound] , what Body weights is on record?
Result: 23.6 g

* * *

# assay overview: Safety evaluation (body weight changes) in pancreatic cancer PA1383 model
# Type: in vivo, Balb/nude female mice
# assay conditions: 60 mg/kg i.p. QD×5/week×2 weeks; Day 14
reported endpoint: Body weights (g)
Numbers only, in g.

Problem: Value lookup for Body weights; key = O=P1(NCCCl)OCCCN1CCCl (stereo not shown) [Ifosfamide, reference compound]
Result: 22.9

* * *

# assay overview: Safety evaluation (body weight changes) in gastric cancer GA6201 model
# Format: in vivo, BALB/c nude mice
# assay conditions: 60 mg/kg intraperitoneal QD×5/week×2 wks; Day 35
reported endpoint: Body weights
Give the number first and the unit second.

Problem: Item O=P1(NCCCl)OCCCN1CCCl (stereo not shown) [Ifosfamide, reference compound] has what recorded Body weights?
Result: 26 g

* * *

# assay overview: Safety evaluation (body weight changes) in pancreatic cancer PA1383 model
# Type: in vivo, Balb/nude female mice
# assay conditions: 4 mg/kg i.v. QD×5, 2 days off, 2 weeks off, QD×5; Day 31
reported endpoint: Body weights (g)
Answers are plain numbers, in g.

Problem: Quick one: Body weights for O=[N+]([O-])c1ccc(C(OP(=O)(N2CC2)N2CC2)C(F)(F)F)cc1Oc1ccc(-c2ccc(F)cc2)c(F)c1 (stereo not shown) ?
Result: 24.7

* * *

# assay overview: Safety evaluation (body weight changes) in pancreatic cancer PA1222 model
# Type: in vivo, BALB/c nude mice
# assay conditions: 120 mg/kg i.p. QW×3; Day 14
reported endpoint: Body weights

Problem: Would you kindly share the measured Body weights for Nc1ccn([C@@H]2O[C@H](CO)[C@@H](O)C2(F)F)c(=O)n1 [Gemcitabine, reference compound] ?
Result: 24.6 g

Source of measurements: patent EP4537832A1
